Assay: Oral bioavailability in CD rat at 1 mg/kg administered as suspension
Type: ADME, organism-based
Settings: in vivo
value-kind: bioavailability (%)
I only need the number, in %, no unit after it.

Reported bioavailability for COc1cccc2c1c(NS(=O)(=O)c1ccc(Cl)s1)nn2Cc1cccc(CNC(=O)C(C)(C)O)c1 : what is it?
53

* * *

Test: Kinetic solubility of the compound in PBS using MeOH at pH 7.4 by NMR analysis
Assay type: physicochemical
Details: read-out: Kinetic_solubility
value-kind: solubility kinetic

Value lookup for solubility kinetic; key = COc1cccc2c1c(NS(=O)(=O)c1ccc(Cl)s1)nn2Cc1cccc(CNC(=O)C(C)(C)O)c1
> 270 µg/mL
